target.or.system: OdinAK (AdkA1) (Candidatus Odinarchaeum yellowstonii, UniProt A0AAF0D2B2)
Sequence (A0AAF0D2B2 1-198): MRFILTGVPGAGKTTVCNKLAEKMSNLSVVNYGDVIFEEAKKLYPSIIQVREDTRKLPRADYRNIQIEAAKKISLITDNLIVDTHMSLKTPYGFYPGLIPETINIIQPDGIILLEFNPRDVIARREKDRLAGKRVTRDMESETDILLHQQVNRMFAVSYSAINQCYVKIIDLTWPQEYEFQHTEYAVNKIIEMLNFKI
experimental.readout: pKd
When answering, recall that pKd equals minus log10 of the concentration in mol/L, and write that number alone.

Field request: pKd | item: `Nc1ccn([C@@H]2O[C@H](COP(=O)(O)OP(=O)(O)OP(=O)(O)O)[C@@H](O)[C@H]2O)c(=O)n1`
4.54

Proceed to `Nc1ncnc2c1ncn2[C@@H]1O[C@H](COP(=O)(O)OP(=O)(O)OP(=O)(O)O)[C@@H](O)[C@H]1O`
6.52

Proceed to `O=c1ccn([C@@H]2O[C@H](COP(=O)(O)OP(=O)(O)OP(=O)(O)O)[C@@H](O)[C@H]2O)c(=O)[nH]1`
5.34

Proceed to `Nc1nc2c(ncn2[C@@H]2O[C@H](COP(=O)(O)OP(=O)(O)OP(=O)(O)O)[C@@H](O)[C@H]2O)c(=O)[nH]1`
5.14

Proceed to `Cc1cn([C@H]2C[C@H](O)[C@@H](COP(=O)(O)OP(=O)(O)OP(=O)(O)O)O2)c(=O)[nH]c1=O`
4.62

Proceed to `Nc1ncnc2c1ncn2[C@@H]1O[C@H](COP(=O)(O)OP(=O)(O)O)[C@@H](O)[C@H]1O`
6.10
